- Tested on: voltage-dependent Ca^2+ channels (VDCC)
- ASSAY METHOD TEXT: Voltage dependent calcium channels blockade assay (Fluo-4, 70 mM K+)
- Type: cell-based, human
- CONDITION PARAMETERS: compounds at 10 μM, SH-SY5Y, basal = 100% response
OBSERVABLE: VDCC % Response (%)
Report the value in % with no unit label.

Memo: Cc1[nH]nc2c1C(c1ccccc1)C(C#N)=C(N)N2 (stereo not drawn) [4a] , reported VDCC % Response: 72.1

// sample COCCOC(=O)C1=C(C)NC(C)=C(C(=O)OC(C)C)C1c1cccc([N+](=O)[O-])c1 (stereo not drawn) [Nimodipine, reference compound] , its VDCC % Response was 51.0

Entry Cc1[nH]nc2c1C(c1cccc(Cl)c1)C(C#N)=C(N)N2 (stereo not drawn) [4d] , VDCC % Response reported as 76.0

###

Answer each item with its documented percentage of survival, R/O toxicity.
- Tested on: SH-SY5Y human neuroblastoma cells
- ASSAY METHOD TEXT: Neuroprotection against rotenone/oligomycin A (oxidative stress), MTT
- CONDITION PARAMETERS: 1 μM, rotenone 30 μM / oligomycin A 10 μM, 24 h, basal = 100%
Reply numerically in %, unit not repeated.

Entry Cc1[nH]nc2c1C(c1ccc(Cl)cc1)C(C#N)=C(N)N2 (stereo not shown) , percentage of survival, R/O toxicity reported as 73.6

Looking up Cc1[nH]nc2c1C(c1ccc(F)cc1)C(C#N)=C(N)N2 (stereo not shown) , I found its percentage of survival, R/O toxicity recorded as 84.3

# percentage of survival, R/O toxicity (compound: Cc1[nH]nc2c1C(c1cccc(Cl)c1)C(C#N)=C(N)N2 (stereo not shown) ) is 72.3

// sample Cc1[nH]nc2c1C(c1ccccc1Cl)C(C#N)=C(N)N2 (stereo not shown) , its percentage of survival, R/O toxicity was 81.3

###

- ASSAY METHOD TEXT: Blood-brain barrier permeation assay (PAMPA), porcine brain lipid
- Assay type: in vitro ADME
- CONDITION PARAMETERS: BBB permeability class from Pe
OBSERVABLE: PAMPA Prediction

Cc1[nH]nc2c1C(c1cccnc1)C(C#N)=C(N)N2 (stereo not drawn) | CNS-
Cc1[nH]nc2c1C(c1ccc(Cl)cc1)C(C#N)=C(N)N2 (stereo not drawn) | CNS+
Cc1[nH]nc2c1C(c1ccc(F)cc1)C(C#N)=C(N)N2 (stereo not drawn) | CNS+
Cc1[nH]nc2c1C(c1ccc(Br)cc1)C(C#N)=C(N)N2 (stereo not drawn) | CNS+
Cc1[nH]nc2c1C(c1ccccc1Br)C(C#N)=C(N)N2 (stereo not drawn) | CNS+
Cc1[nH]nc2c1C(c1ccncc1)C(C#N)=C(N)N2 (stereo not drawn) | CNS+
Cc1[nH]nc2c1C(c1ccccc1Cl)C(C#N)=C(N)N2 (stereo not drawn) | CNS+
Cc1[nH]nc2c1C(c1cccs1)C(C#N)=C(N)N2 (stereo not drawn) | CNS+
Cc1[nH]nc2c1C(c1ccc([N+](=O)[O-])cc1)C(C#N)=C(N)N2 (stereo not drawn) | CNS±
Cc1[nH]nc2c1C(c1cccc(Cl)c1)C(C#N)=C(N)N2 (stereo not drawn) | CNS+

For record Cc1[nH]nc2c1C(c1cccc([N+](=O)[O-])c1)C(C#N)=C(N)N2 (stereo not drawn) the listed PAMPA Prediction is CNS±

Memo: Cc1[nH]nc2c1C(c1ccccc1)C(C#N)=C(N)N2 (stereo not drawn) , reported PAMPA Prediction: CNS+

###

- ASSAY METHOD TEXT: DPPH reduction assay
- CONDITION PARAMETERS: DPPH 100 µM, 1 h in the dark
Assign IC50 to each entry below.
Lab book: enter the figure in µM, no units written.

Reported IC50 for Cc1[nH]nc2c1C(c1ccncc1)C(C#N)=C(N)N2 (stereo not drawn) [4l] was 22.9

According to the records, this compound Cc1[nH]nc2c1C(c1ccc(F)cc1)C(C#N)=C(N)N2 (stereo not drawn) [4b] displays IC50 of 22.8

Query Cc1[nH]nc2c1C(c1ccccc1)C(C#N)=C(N)N2 (stereo not drawn) [4a] yields IC50 of 25.2

###

- Tested on: voltage-dependent Ca^2+ channels (VDCC)
- ASSAY METHOD TEXT: Voltage dependent calcium channels blockade assay (Fluo-4, 70 mM K+)
- Format: cell-based, human
- CONDITION PARAMETERS: compounds at 10 μM, SH-SY5Y, basal = 100% response
Decision: VDCC % Response >= 70% yields yes, all other cases yield no.

Exam item: decide whether the reported VDCC % Response for Cc1[nH]nc2c1C(c1ccc(F)cc1)C(C#N)=C(N)N2 (stereo not drawn) [4b] is at least 70%.
no

Tell me whether VDCC % Response is at least 70% here: Cc1[nH]nc2c1C(c1ccccc1Cl)C(C#N)=C(N)N2 (stereo not drawn) [4c]
no

Check this molecule for VDCC % Response at or above 70%: Cc1[nH]nc2c1C(c1ccc([N+](=O)[O-])cc1)C(C#N)=C(N)N2 (stereo not drawn) [4i]
yes

Determine whether measured VDCC % Response meets or exceeds 70% for Cc1[nH]nc2c1C(c1cccs1)C(C#N)=C(N)N2 (stereo not drawn) [4j]
no

Entry Cc1[nH]nc2c1C(c1cccc([N+](=O)[O-])c1)C(C#N)=C(N)N2 (stereo not drawn) [4h] : is its VDCC % Response no less than 70%?
yes

###

- Test system: primary glial cultures
- CONDITION PARAMETERS: Sprague-Dawley, rat, 24 h
OBSERVABLE: Glial cultures LD50

// sample COc1ccc2[nH]cc(CCNC(C)=O)c2c1 [Melatonin] , its Glial cultures LD50 was > 100 µM

###

Hi! I'm sharing some pIC50 results obtained with UniProtKB P49841.
Sequence (P49841 whole entry): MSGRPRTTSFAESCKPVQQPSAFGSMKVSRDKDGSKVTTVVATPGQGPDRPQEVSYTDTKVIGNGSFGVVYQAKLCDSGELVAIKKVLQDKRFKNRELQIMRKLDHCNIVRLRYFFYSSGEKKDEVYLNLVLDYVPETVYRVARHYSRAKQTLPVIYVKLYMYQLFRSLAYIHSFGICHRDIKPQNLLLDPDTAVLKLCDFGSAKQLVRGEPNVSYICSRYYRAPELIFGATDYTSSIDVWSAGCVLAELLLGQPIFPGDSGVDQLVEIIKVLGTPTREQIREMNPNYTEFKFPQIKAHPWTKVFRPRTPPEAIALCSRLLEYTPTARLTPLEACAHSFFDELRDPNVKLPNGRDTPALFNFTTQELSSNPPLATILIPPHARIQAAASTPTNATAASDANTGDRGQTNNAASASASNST
FYI, pIC50 means -log10 of a concentration in mol per litre.

The observed pIC50 for Cc1[nH]nc2c1C(c1ccccc1Cl)C(C#N)=C(N)N2 (stereo not shown) when tested with UniProtKB P49841 stands at 5.82

Tested on UniProtKB P49841: Cc1[nH]nc2c1C(c1ccc(F)cc1)C(C#N)=C(N)N2 (stereo not shown) . Observed pIC50: 5.67

Tested on UniProtKB P49841, the item Cc1[nH]nc2c1C(c1ccc(Br)cc1)C(C#N)=C(N)N2 (stereo not shown) showed pIC50 equal to 5.63

Cc1[nH]nc2c1C(c1cccs1)C(C#N)=C(N)N2 (stereo not shown) on UniProtKB P49841 gives pIC50 = 5.76

# value of pIC50, UniProtKB P49841, item Cc1[nH]nc2c1C(c1ccc(Cl)cc1)C(C#N)=C(N)N2 (stereo not shown) = 5.71

Measured pIC50 (UniProtKB P49841), entry Cc1[nH]nc2c1C(c1ccc([N+](=O)[O-])cc1)C(C#N)=C(N)N2 (stereo not shown) : 5.51

Record Cc1[nH]nc2c1C(c1cccc([N+](=O)[O-])c1)C(C#N)=C(N)N2 (stereo not shown) has UniProtKB P49841 pIC50 equal to 6.09

###

- ASSAY METHOD TEXT: DPPH reduction assay
- CONDITION PARAMETERS: DPPH 100 µM, 1 h in the dark
Please provide measured pIC50 for the entries that follow.
Would you please state pIC50, meaning minus log10 of the concentration in mol/L, as a bare number?

Lab book: pIC50 of Cc1[nH]nc2c1C(c1ccccc1Cl)C(C#N)=C(N)N2 (stereo not shown) noted as 4.63

compound Cc1[nH]nc2c1C(c1cccc([N+](=O)[O-])c1)C(C#N)=C(N)N2 (stereo not shown) , pIC50 observed: 4.61

The compound identified as Cc1[nH]nc2c1C(c1ccccc1Br)C(C#N)=C(N)N2 (stereo not shown) registered its pIC50 at 4.67

According to the records, this compound O=C1O[C@H]([C@@H](O)CO)C(O)=C1O [Ascorbic ac., Ascorbic acid, reference compound] displays pIC50 of 4.21

The compound Cc1[nH]nc2c1C(c1ccc(Cl)cc1)C(C#N)=C(N)N2 (stereo not shown) showed pIC50 equal to 4.68

Query Cc1[nH]nc2c1C(c1ccc([N+](=O)[O-])cc1)C(C#N)=C(N)N2 (stereo not shown) yields pIC50 of 4.63

In plain terms, Cc1[nH]nc2c1C(c1cccnc1)C(C#N)=C(N)N2 (stereo not shown) has a documented pIC50 of 4.77

compound Cc1[nH]nc2c1C(c1cccc(Cl)c1)C(C#N)=C(N)N2 (stereo not shown) , pIC50 observed: 4.64

Sure, the documented pIC50 for Cc1[nH]nc2c1C(c1ccc(Br)cc1)C(C#N)=C(N)N2 (stereo not shown) is 4.62

The value of pIC50 measured for the compound Cc1[nH]nc2c1C(c1cccs1)C(C#N)=C(N)N2 (stereo not shown) turned out to be 4.68

Entry source: paper PMC7463999
